Data credit: PubChem BioAssay (Tox21)

assay: A CellTox Green Cytotoxicity Assay to monitor cytotoxicity in HEK293 cells - 32 hour (AID 1224881); settings: CellTox Green fluorescence; series mostly up to 76.8 µM; further: nearly all actives have a fitted effect of over 40% in size
Results filed as inconclusive are left out. The source made the active and inactive calls. The call rests on the fitted dose curve; in most records, active means well fitted activation curve with a large enough effect in the repeat runs; inconclusive means weak or mixed curves; inactive means flat fitted curve, though single readings scatter.
Labels: active, inactive

compound: Cc1cccc(C)c1NC(=O)c1cc(S(N)(=O)=O)c(Cl)cc1O
group.label: inactive
//
compound: COc1ccc(CCN(C)CCCN2CCc3cc(OC)c(OC)cc3CC2=O)cc1OC
group.label: inactive
//
compound: CC(C)OC(=O)c1ccccc1C(=O)OC(C)C
group.label: inactive
//
compound: CNCc1ccc(NC(=O)c2c[nH]c3c2C(=O)CCC3)cc1
group.label: inactive
//
compound: COC1CCC=CO1 (configuration not stated)
group.label: inactive
//
compound: CN1CCCN(C(c2ccccc2)c2ccc(Cl)cc2)CC1 (configuration not stated)
group.label: active
//
compound: NC(=O)c1ccccc1[N+](=O)[O-]
group.label: active
//
compound: O=C(CCS)OCC(COC(=O)CCS)(COC(=O)CCS)COC(=O)CCS
group.label: inactive
//
compound: O=C(c1ccccc1)C1CCC1
group.label: active
//
compound: C[C@@H]1C[C@H]2[C@@H]3CCC4=CC(=O)C=C[C@]4(C)[C@@]3(F)[C@@H](O)C[C@]2(C)[C@@]1(O)C(=O)COP(=O)(O)O
group.label: inactive
//
compound: Cc1cccc2sc(N)nc12
group.label: inactive
//
compound: CC(C)(C)C1(CCc2ccc(Cl)cc2)CO1 (configuration not stated)
group.label: active

###

Experiment: qHTS assay to identify small molecule antagonists of the estrogen receptor alpha (ER-alpha) signaling pathway using the BG1 cell line in the presence of 0.1 nM 17-beta-estradiol - cell viability counter screen (AID 1259241); further: on the % scale 0 is the no-effect control and ±100 the full control effect; nearly all actives have a fitted effect of over 40% in size
Settings: VM7Luc4E2 (BG1) viability, CellTiter-Fluor protease, 22 h, 0.1 nM estradiol agonist added; series mostly up to 92.4 µM
Excerpt: National Center for Advancing Translational Sciences [NCATS] NIH Chemical Genomics Center [NCGC] U.S. Environmental Protection Agency [EPA] National Institutes of Environmental Health Sciences [NIEHS] National Toxicology Program [NTP] U.S. Food and Drug Administration [FDA] Estrogen receptor (ER), a member of the nuclear hormone receptor plays an important role in development, metabolic homeostasis and reproduction. […]
Results filed as inconclusive are left out. Calls of active or inactive are those of the source. The call rests on the fitted dose curve; in most records, active means well fitted cell-killing curve with a large enough effect in the repeat runs; inconclusive means weak or mixed curves, or effect the other way; inactive means flat fitted curve, though single readings scatter.

compound: C[C@@H]1[C@H](O)[C@@H](C)/C=C/C=C\C=C\C=C\C=C\C=C\C=C\[C@H](O[C@@H]2O[C@H](C)[C@@H](O)[C@H](N)[C@@H]2O)C[C@@H]2O[C@](O)(C[C@@H](O)C[C@@H](O)[C@H](O)CC[C@@H](O)C[C@@H](O)CC(=O)O[C@H]1C)C[C@H](O)[C@H]2C(=O)O (stereo in doubt)
outcome: inactive
--
compound: O=[N+]([O-])c1ccc2ncccc2c1
outcome: inactive
--
compound: CC(C)C(=O)OCCOc1ccccc1
outcome: inactive
--
compound: COC(=O)Nc1nc2ccc(C(=O)C3CC3)cc2[nH]1
outcome: inactive
--
compound: CC(=O)OCC(=O)[C@@]1(OC(C)=O)[C@@H](C)C[C@H]2[C@@H]3C[C@H](F)C4=CC(=O)C=C[C@]4(C)[C@@]3(F)[C@@H](O)C[C@@]21C
outcome: inactive
--
compound: BrC(Br)C(Br)Br
outcome: inactive
--
compound: O=C(O)c1ccc(O)cc1O
outcome: inactive
--
compound: Cc1cc(CCCOc2c(C)cc(-c3noc(C(F)(F)F)n3)cc2C)on1
outcome: inactive
--
compound: CCCCCCCCCCCCCCCC(=O)OCC
outcome: inactive

###

assay: A CellTox Green Cytotoxicity Assay to monitor cytotoxicity in HepG2 cells - 24 hour (AID 1224878); settings: CellTox Green fluorescence; series mostly up to 76.8 µM; further: nearly all actives have a fitted effect of over 45% in size; on Cytotoxicity: on the % scale 0 is the no-effect control and ±100 the full control effect
Results filed as inconclusive are left out. The source made the active and inactive calls. The call rests on the fitted dose curve; in most records, active means well fitted activation curve with a large enough effect in the repeat runs; inconclusive means weak or mixed curves; inactive means flat fitted curve, though single readings scatter.
Outcome codes: y = active, n = inactive

compound: CCCC(=O)OC(=O)CCC
group.label: n
//
compound: CCCCCCCCCCCCCCCC(=O)OCC
group.label: n
//
compound: CC(C)C1CCC(C(=O)N[C@H](Cc2ccccc2)C(=O)O)CC1 (stereo partly specified)
group.label: n
//
compound: CCCCCCCC(=O)OCCCCCC
group.label: n
//
compound: Cc1c[nH]c2ccccc12
group.label: n
//
compound: O=C(c1ccccc1)C1CCC1
group.label: y
//
compound: CCN(CC)C(=O)N1CCN(C)CC1
group.label: n
//
compound: O=C(O)CCS
group.label: n
//
compound: CCOC(=O)c1c(N)sc2c1CCN(Cc1ccccc1)C2
group.label: n
//
compound: C=CC(=O)O
group.label: n
//
compound: CC(CO)(CO)C(=O)O
group.label: n
//
compound: O=C1CC[C@@H](C(=O)O)N1
group.label: n
//
compound: Cc1ccc2c(c1)CCCN2
group.label: n
//
compound: COc1cc(OC)c2ccc(=O)oc2c1
group.label: n
//
compound: CC(C)Cc1ccc(CC(=O)O)cc1
group.label: y
//
compound: CCN(CC)c1cccc(O)c1
group.label: n

###

target: Cytochrome P450 2C9 (Homo sapiens) (UniProt P11712); assay: Cytochrome P450 Family 2 Subfamily C Member 9 (CYP2C9) small molecule antagonists: luciferase reporter qHTS assay (AID 1671198); details: P450-Glo CYP2C9 enzyme assay, luciferin luminescence; series mostly up to 115 µM; further: nearly all actives have a fitted effect of over 50% in size
Sequence (P11712 whole entry, looked up): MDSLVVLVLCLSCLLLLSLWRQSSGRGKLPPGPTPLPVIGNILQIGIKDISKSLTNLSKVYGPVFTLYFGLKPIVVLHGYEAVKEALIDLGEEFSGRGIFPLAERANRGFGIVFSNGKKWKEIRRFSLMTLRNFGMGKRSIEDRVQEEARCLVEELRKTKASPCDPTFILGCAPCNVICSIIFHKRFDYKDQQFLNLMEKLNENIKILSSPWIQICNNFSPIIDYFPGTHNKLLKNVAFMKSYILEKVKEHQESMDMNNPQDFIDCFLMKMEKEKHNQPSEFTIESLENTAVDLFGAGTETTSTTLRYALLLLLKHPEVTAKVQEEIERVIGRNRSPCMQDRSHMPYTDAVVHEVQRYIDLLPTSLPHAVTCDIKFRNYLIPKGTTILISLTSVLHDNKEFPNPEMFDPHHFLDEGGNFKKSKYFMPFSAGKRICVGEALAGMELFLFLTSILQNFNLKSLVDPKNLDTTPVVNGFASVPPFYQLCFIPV
Records with an inconclusive call do not appear. Activity calls are given as the source filed them. Calls follow the shape of the dose curve; as a rule, active = well fitted inhibition curve with a large enough effect in the repeat runs; inconclusive = weak or mixed curves; inactive = no such curve, though single readings can be large or run the other way.
Labels: T = active, F = inactive

compound: CC(C)N(C)C
group.label: F
//
compound: O=C(O)c1cccc(C[C@@H]2COc3ccc(OCc4nc5cc(F)ccc5s4)cc3[C@@H]2O)c1
group.label: T
//
compound: COc1ccc(CCN(C)CCCN2CCc3cc(OC)c(OC)cc3CC2=O)cc1OC
group.label: F
//
compound: CC[C@H]1OC(=O)[C@H](C)[C@@H](O[C@H]2C[C@@](C)(OC)[C@@H](O)[C@H](C)O2)[C@H](C)[C@@H](O[C@@H]2O[C@H](C)C[C@H](N(C)C)[C@H]2O)[C@](C)(O)C[C@@H](C)CN(C)[C@H](C)[C@@H](O)[C@]1(C)O
group.label: F
//
compound: FC(F)(F)C(F)(F)C(F)(F)C(F)(F)CCI
group.label: F
//
compound: OCC(CO)n1cnc(-c2ccc(F)cc2)c1-c1ccnc(Oc2ccccc2)n1
group.label: T
//
compound: C1=CCC2CC=CC2C1 (configuration not stated)
group.label: F
//
compound: CC(CO)(CO)C(=O)O
group.label: F
//
compound: CCC(Cl)CC(Cl)C(Cl)C(Cl)C(Cl)C(C)Cl (configuration not stated)
group.label: T
//
compound: Nc1ccn([C@H]2CS[C@@H](CO)O2)c(=O)n1
group.label: F
//
compound: CC(C(=O)O)c1ccc(C(=O)c2cccs2)cc1 (configuration not stated)
group.label: T
//
compound: CCCCCc1ccco1
group.label: T

###

assay: qHTS RealTime-Glo MT Cell Viability Assay in HEK293 cells - 24 hour (AID 1224886); details: RealTime-Glo luminescence; series mostly up to 76.8 µM; further: nearly all actives have a fitted effect of over 50% in size
Results filed as inconclusive are left out. Activity calls are given as the source filed them. Calls follow the shape of the dose curve; as a rule, active = well fitted cell-killing curve with a large enough effect in the repeat runs; inconclusive = weak or mixed curves, or effect the other way; inactive = flat fitted curve, though single readings scatter.
Outcomes: 1 for active, 0 for inactive

molecule: CCN(CC)C(=O)/C(C#N)=C/c1cc(O)c(O)c([N+](=O)[O-])c1
group.label: 0

molecule: C=CC(=O)NC(C)C
group.label: 0

molecule: O=C(Nc1ccc(C(=O)O)c(O)c1)c1ccccc1
group.label: 0

molecule: CC(C)(C)C(O)/C=C/c1ccc2c(c1)OCO2 (stereo not drawn)
group.label: 0

molecule: COC1CCC=CO1 (stereo not drawn)
group.label: 0

molecule: CC1CCCC(=O)C1=O (stereo not drawn)
group.label: 0

molecule: O[C@@H](CNC[C@H](O)[C@H]1CCc2cc(F)ccc2O1)[C@@H]1CCc2cc(F)ccc2O1
group.label: 1

molecule: O=C(c1ccccc1)C1CCC1
group.label: 0

molecule: CCN(CC)C(=O)N1CCN(C)CC1
group.label: 0

molecule: CN1C(CSCC(F)(F)F)Nc2cc(Cl)c(S(N)(=O)=O)cc2S1(=O)=O (stereo not drawn)
group.label: 1

molecule: COC(CC(C)CCCC(C)(C)O)OC (stereo not drawn)
group.label: 0

molecule: COc1ccc(N)c([N+](=O)[O-])c1
group.label: 0

molecule: CNC1CCCN(c2c(F)cc3c(=O)c(C(=O)O)cn(C4CC4)c3c2OC)C1 (stereo not drawn)
group.label: 0

###

assay: qHTS assay for small molecule disruptors of the mitochondrial membrane potential (AID 720635); conditions: HepG2 mitochondrial membrane potential, Mito-MPS dye ratio; series mostly up to 83.2 µM; further: potency means the concentration at half of the fitted maximal effect
Results filed as inconclusive are left out. Calls of active or inactive are those of the source. Calls come from the whole dose curve; as a rule, active = well fitted inhibition curve with a large enough effect in the signal ratio in the repeat runs; inconclusive = weak or mixed curves, or effect the other way; inactive = flat fitted curve, though single readings scatter; the % refers to the signal ratio.
quantity: Potency

compound: CCCCCCCC/C=C\CCCCCCCC(=O)OCCO
quantity: Potency
observed.measurement: inactive
--
compound: O=S(=O)(Cl)c1c(Cl)cccc1Cl
quantity: Potency
observed.measurement: inactive
--
compound: Cc1cn([C@H]2C[C@H](F)[C@@H](CO)O2)c(=O)[nH]c1=O
quantity: Potency
observed.measurement: inactive
--
compound: Cc1ccc2c(c1[N+](=O)[O-])C(=O)c1ccccc1C2=O
quantity: Potency
observed.measurement: 1.2 µM (active)
--
compound: CCCCCc1ccco1
quantity: Potency
observed.measurement: 44.7 µM (active)
--
compound: COc1ccc(N)c([N+](=O)[O-])c1
quantity: Potency
observed.measurement: inactive
--
compound: CCCCCCC(O)CCCCCCCCCCC(=O)OC (stereo not drawn)
quantity: Potency
observed.measurement: inactive
--
compound: CCCCCCCC(=O)Oc1c(Br)cc(C#N)cc1Br
quantity: Potency
observed.measurement: 12.1 µM (active)
--
compound: C/C(C=O)=C\c1ccccc1
quantity: Potency
observed.measurement: inactive
--
compound: COc1ccc(/C=C/C(=O)c2ccc(OC)cc2OC)cc1
quantity: Potency
observed.measurement: 13.3 µM (active)
--
compound: CC(=O)OCCC1CCCCC1
quantity: Potency
observed.measurement: inactive
--
compound: Nc1nc(-c2ccc([N+](=O)[O-])cc2)cs1
quantity: Potency
observed.measurement: 3.1 µM (active)
--
compound: COc1ccc(CCN(C)CCCN2CCc3cc(OC)c(OC)cc3CC2=O)cc1OC
quantity: Potency
observed.measurement: inactive
